Values were extracted from paper PMC8364251.

ASSAYED_SYSTEM: RBD-ACE2 binding (Severe acute respiratory syndrome coronavirus 2)
PROTOCOL_DESCRIPTION: ELISA ACE2:SARS-CoV-2 Spike inhibitor screening assay
DETAILS: 25–200 μM compounds
READOUT_TYPE: activity in ELISA (inhibition of RBD-ACE2 binding)

MOLECULE	ASSAY_RESULT
COc1ccc(C[C@@H]2c3cc(Oc4cc(C[C@@H]5c6cc(O)c(OC)cc6CCN5C)ccc4O)c(OC)cc3CCN2C)cc1	high activities
O=C(O[C@@H]1Cc2c(O)cc(O)cc2O[C@@H]1c1cc(O)c(O)c(O)c1)c1cc(O)c(O)c(O)c1 [EGCG, epigallocatechin gallate]	high activities
C[C@H]1CC[C@@]2(OC1)O[C@H]1C[C@H]3[C@@H]4CC[C@@H]5C[C@@H](O[C@@H]6O[C@H](CO)[C@H](O)[C@H](O)[C@H]6O[C@@H]6O[C@H](CO)[C@@H](O)[C@H](O)[C@H]6O)CC[C@]5(C)[C@H]4CC[C@]3(C)[C@H]1[C@@H]2C	almost inactive
CC(C)=CCc1cc2c(cc1O)O[C@H](c1ccc(O)cc1)CC2=O	high activities
O=C(/C=C/c1ccc(O)c(O)c1/C=C/c1ccc(O)c(O)c1)O[C@H](Cc1ccc(O)c(O)c1)C(=O)O	high activities
COc1ccc2cc1Oc1ccc(cc1)C[C@H]1c3c(cc4c(c3Oc3cc5c(cc3OC)CCN(C)[C@@H]5C2)OCO4)CCN1C	almost inactive

---

ASSAYED_SYSTEM: UniProtKB P0DTC2
pKd: −log10 of the molar value.
READOUT_TYPE: pKd

> print(dat)
                              sample.smiles  readout.type  assay.result
1  O=C(/C=C/c1ccc(O)c2oc(-c3ccc(O)c(O)c3)cc12)O[C@H](Cc1ccc(O)c(O)c1)C(=O)O           pKd          5.21
